- MEASURED_TARGET: T1, His-cynomolgus monkey LIGHT (cynomolgus monkey)
- T1 construct: also called His-cynoLIGHT
- T1 chain: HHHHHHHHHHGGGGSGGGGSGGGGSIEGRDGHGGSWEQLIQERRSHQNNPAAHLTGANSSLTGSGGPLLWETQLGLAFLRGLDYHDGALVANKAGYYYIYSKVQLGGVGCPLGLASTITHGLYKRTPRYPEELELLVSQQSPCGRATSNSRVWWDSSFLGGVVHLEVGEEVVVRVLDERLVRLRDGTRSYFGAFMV
- ASSAY_TEXT: ELISA, His-cynoLIGHT coated
// values below are reported EC50
Record the value in nM, omitting the unit from your answer.

## Input // returns reported EC50 for input hum_LT-m37-6 (antibody, human IgG4, V domains shown, humanized from LT-m37) VH: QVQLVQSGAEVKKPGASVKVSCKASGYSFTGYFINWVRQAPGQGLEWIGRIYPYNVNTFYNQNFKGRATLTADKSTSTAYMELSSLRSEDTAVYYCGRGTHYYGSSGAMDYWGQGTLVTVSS VL: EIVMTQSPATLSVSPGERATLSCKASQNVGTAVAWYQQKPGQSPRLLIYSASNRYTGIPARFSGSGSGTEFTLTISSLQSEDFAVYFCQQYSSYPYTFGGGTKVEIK
## Output 0.0588

New cases:
## Input // returns reported EC50 for input hum_LT-m37-14 (antibody, human IgG4, V domains shown, humanized from LT-m37) VH: QVQLVQSGAEVKKPGASVKVSCKASGYSFTGYFINWVRQAPGQSLEWIGRIYPYNVDTFYNQNFKGRATLTADKSTSTAYMELSSLRSEDTAVYYCGRGTHYYGSSGAMDYWGQGTLVTVSS VL: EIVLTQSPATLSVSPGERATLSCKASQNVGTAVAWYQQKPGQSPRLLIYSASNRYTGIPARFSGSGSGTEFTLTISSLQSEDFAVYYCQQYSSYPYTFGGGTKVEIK
## Output 0.104
